Measured values drawn from ChEMBL document CHEMBL1641473 for this set.

assay: Antioxidant activity assessed as trolox equivalents of peroxyl radical scavenging activity by ORAC assay; assay type: functional
Recorded Activity (Trolox equivalents) by entry
// return a plain number; no unit text

See these solved cases before continuing.
• COc1cc(/C=[N+](\[O-])Cc2ccccc2)ccc1O = 2.93
• COc1cc(Br)c(/C=[N+](\[O-])Cc2ccccc2)cc1OC = 0.03
• Cc1c(C)c2c(c(C)c1O)CCC(C)(C(=O)O)O2 (centres undefined) = 1

Continue with the compound presented below.
Consider the compound `[O-]/[N+](=C\c1ccccc1)Cc1ccccc1` and give its measured Activity (Trolox equivalents).
0.01
